- subject-of-test: R. etli pyruvate carboxylase (RePC) (Rhizobium etli, UniProt Q2K340, T882A)
- method-notes: bicarbonate-dependent ATPase, coupled Pi assay, partial inhibition fit
Below is a list of entries, each paired with its recorded Ki value.
Note: state the figure and append the unit.

compound | subject-of-test | Ki
NC(=O)C(=O)O [oxamate] | R. etli pyruvate carboxylase (RePC) (Rhizobium etli, UniProt Q2K340, T882A) | 1000 µM

Problem: Bench note: what Ki did CC(=O)C(=O)O [pyruvate] show?
Solution: 800 µM
